Assay summary: in vivo
Condition notes: male, Balb/c, mouse, po, 20 mg/kg

Compound	Unit abbrev	Cmax
CC[C@H]1OC(=O)[C@@](C)(F)C(=O)[C@H](C)[C@@H](O[C@@H]2O[C@H](C)C[C@H](N(C)C)[C@H]2O)[C@](C)(OC)C[C@@H](C)C(=O)[C@H](C)[C@H]2N(CCCCn3cc(-c4cccc(N)c4)nn3)C(=O)O[C@]12C [Form I, solithromycin]	ng/mL	9500

* * *

Assay summary: Oral pharmacokinetics in Balb/c mice, single dose 20 or 100 mg/kg
Condition notes: female, Balb/c, mouse, plasma, po, 100 mg/kg

Compound	concentration at 6 h / ng/mL
CC[C@H]1OC(=O)[C@@](C)(F)C(=O)[C@H](C)[C@@H](O[C@@H]2O[C@H](C)C[C@H](N(C)C)[C@H]2O)[C@](C)(OC)C[C@@H](C)C(=O)[C@H](C)[C@H]2N(CCCCn3cc(-c4cccc(N)c4)nn3)C(=O)O[C@]12C [Form II, solithromycin]	7800

* * *

Assay summary: in vivo
Condition notes: female, Balb/c, mouse, po, 20 mg/kg, Tmax

Molecule	Unit abbrev	Tmax
CC[C@H]1OC(=O)[C@@](C)(F)C(=O)[C@H](C)[C@@H](O[C@@H]2O[C@H](C)C[C@H](N(C)C)[C@H]2O)[C@](C)(OC)C[C@@H](C)C(=O)[C@H](C)[C@H]2N(CCCCn3cc(-c4cccc(N)c4)nn3)C(=O)O[C@]12C [Form I, solithromycin]	h	2

* * *

Assay summary: Oral pharmacokinetics in Balb/c mice, single dose 20 or 100 mg/kg
Condition notes: female, Balb/c, mouse, plasma, po, 100 mg/kg

Molecule	concentration at 4 h (µg/mL)
CC[C@H]1OC(=O)[C@@](C)(F)C(=O)[C@H](C)[C@@H](O[C@@H]2O[C@H](C)C[C@H](N(C)C)[C@H]2O)[C@](C)(OC)C[C@@H](C)C(=O)[C@H](C)[C@H]2N(CCCCn3cc(-c4cccc(N)c4)nn3)C(=O)O[C@]12C [Form II, solithromycin]	10.2

* * *

Assay summary: Further oral pharmacokinetic study in female Balb/c mice, 5, 10 and 20 mg/kg
Condition notes: mouse, plasma, 5 mg/kg, AUC 0-24, Mean, 5 mg/kg single oral dose

Compound	AUC(0-t) / ng·h/mL
CC[C@H]1OC(=O)[C@@](C)(F)C(=O)[C@H](C)[C@@H](O[C@@H]2O[C@H](C)C[C@H](N(C)C)[C@H]2O)[C@](C)(OC)C[C@@H](C)C(=O)[C@H](C)[C@H]2N(CCCCn3cc(-c4cccc(N)c4)nn3)C(=O)O[C@]12C [Form II, solithromycin]	4690

* * *

Assay summary: Further oral pharmacokinetic study in female Balb/c mice, 5, 10 and 20 mg/kg
Condition notes: mouse, plasma, 20 mg/kg, AUC 0-24, Median, 20 mg/kg single oral dose
Metric name: AUC(0-t) (ng·h/mL)

Molecule	Unit abbrev	Reported
CC[C@H]1OC(=O)[C@@](C)(F)C(=O)[C@H](C)[C@@H](O[C@@H]2O[C@H](C)C[C@H](N(C)C)[C@H]2O)[C@](C)(OC)C[C@@H](C)C(=O)[C@H](C)[C@H]2N(CCCCn3cc(-c4cccc(N)c4)nn3)C(=O)O[C@]12C [Form II, solithromycin]	ng·h/mL	21700
